molecular target: PIKFYVE (Homo sapiens, UniProt Q9Y2I7); experiment: PIKFYVE assay (luciferase ADP-Glo kinase assay, Promega); format: biochemical; details: Table 3
Sequence (Q9Y2I7 whole entry): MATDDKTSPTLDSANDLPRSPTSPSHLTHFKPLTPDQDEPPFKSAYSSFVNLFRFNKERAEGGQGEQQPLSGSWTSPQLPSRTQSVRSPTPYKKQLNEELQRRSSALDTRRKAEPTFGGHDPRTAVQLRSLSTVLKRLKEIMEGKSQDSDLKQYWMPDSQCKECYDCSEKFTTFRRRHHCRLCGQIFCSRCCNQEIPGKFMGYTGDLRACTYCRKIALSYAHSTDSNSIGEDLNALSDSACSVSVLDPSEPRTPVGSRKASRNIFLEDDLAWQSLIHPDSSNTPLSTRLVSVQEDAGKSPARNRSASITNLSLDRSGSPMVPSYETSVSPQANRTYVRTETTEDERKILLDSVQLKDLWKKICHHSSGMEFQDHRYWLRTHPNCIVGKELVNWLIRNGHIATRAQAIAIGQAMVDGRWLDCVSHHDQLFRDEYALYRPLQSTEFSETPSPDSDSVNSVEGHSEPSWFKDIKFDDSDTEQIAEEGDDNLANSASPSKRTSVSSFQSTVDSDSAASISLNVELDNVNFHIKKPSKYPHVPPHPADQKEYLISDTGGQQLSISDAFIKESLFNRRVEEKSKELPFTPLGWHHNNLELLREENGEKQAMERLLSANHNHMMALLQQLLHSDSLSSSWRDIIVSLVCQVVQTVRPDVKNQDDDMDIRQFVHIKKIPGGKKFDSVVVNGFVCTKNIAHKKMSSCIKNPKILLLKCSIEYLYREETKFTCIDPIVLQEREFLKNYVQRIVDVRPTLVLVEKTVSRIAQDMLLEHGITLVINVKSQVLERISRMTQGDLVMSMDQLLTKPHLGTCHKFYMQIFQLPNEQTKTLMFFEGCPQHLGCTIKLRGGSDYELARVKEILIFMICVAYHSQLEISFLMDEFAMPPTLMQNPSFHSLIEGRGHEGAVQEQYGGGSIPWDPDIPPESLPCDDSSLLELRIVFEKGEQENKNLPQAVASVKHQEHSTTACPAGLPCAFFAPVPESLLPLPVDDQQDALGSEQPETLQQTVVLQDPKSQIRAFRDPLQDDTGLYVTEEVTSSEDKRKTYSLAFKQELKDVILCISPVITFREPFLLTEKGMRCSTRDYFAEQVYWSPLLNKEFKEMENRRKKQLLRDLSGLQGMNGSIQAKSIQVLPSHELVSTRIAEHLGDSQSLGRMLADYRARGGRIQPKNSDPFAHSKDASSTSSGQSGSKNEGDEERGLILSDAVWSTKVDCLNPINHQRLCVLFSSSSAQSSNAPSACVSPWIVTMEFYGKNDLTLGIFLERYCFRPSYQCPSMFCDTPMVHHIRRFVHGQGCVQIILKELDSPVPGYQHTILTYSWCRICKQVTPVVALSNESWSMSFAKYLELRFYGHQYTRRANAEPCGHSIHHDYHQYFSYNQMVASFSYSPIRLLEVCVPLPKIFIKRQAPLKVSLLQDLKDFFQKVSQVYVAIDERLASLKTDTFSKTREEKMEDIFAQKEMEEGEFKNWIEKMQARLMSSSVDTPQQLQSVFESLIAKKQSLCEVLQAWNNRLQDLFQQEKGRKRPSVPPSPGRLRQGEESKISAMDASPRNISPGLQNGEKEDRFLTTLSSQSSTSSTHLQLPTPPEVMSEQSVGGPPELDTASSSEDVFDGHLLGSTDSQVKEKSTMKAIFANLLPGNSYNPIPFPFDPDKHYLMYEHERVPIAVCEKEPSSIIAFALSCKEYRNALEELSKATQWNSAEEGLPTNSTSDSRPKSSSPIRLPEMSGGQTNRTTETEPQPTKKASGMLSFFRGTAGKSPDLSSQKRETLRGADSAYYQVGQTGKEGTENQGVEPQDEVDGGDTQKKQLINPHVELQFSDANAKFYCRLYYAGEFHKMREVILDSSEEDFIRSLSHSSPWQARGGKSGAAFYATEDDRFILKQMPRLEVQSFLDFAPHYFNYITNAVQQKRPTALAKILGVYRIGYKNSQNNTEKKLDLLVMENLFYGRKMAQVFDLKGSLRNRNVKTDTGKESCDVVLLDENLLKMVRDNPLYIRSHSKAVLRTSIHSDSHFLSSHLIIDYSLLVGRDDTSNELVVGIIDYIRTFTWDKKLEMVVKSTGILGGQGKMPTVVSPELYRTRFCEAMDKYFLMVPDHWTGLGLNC
Can you tell me IC50 for the items I'm about to list?

Recorded IC50 for "Cn1cc(CCOc2nc(N3CCOCC3)cc(-n3ccc(-c4cccc5c4OCCN5)n3)n2)cn1" , please?
10 to 100 nM

Now the same for "Cc1cccc(-c2ccn(-c3cc(N4CCOCC4)c4[nH]ccc4n3)n2)c1"
3 to 10 nM

Now the same for "Cc1cccc(-c2ccn(-c3cc(N4CCOCC4)nc(OCc4ncccc4F)n3)n2)c1"
3 to 10 nM

Now the same for "CN(C)CCc1cc(-c2ccccc2)nn1-c1cc(N2CCOCC2)nc(OCCc2cnn(C)c2)n1"
< 3 nM

---

target: PIKFYVE (Homo sapiens, UniProt Q9Y2I7); experiment: Cell-based Pikfyve inhibition activity assay (EEA1 staining, mean vesicle size in BJ fibroblast cells); conditions: Table 4, 4 hours treatment, 3 μM Apilimod = 100% inhibition
Can you tell me EC50 for the items I'm about to list?

Recorded EC50 for CO[C@H](CO)c1nc(N2CCO[C@H](C)C2)cc(-n2ccc(-c3cccc(C)c3)n2)n1 (single isomer, unassigned) , please?
> 5 µM

Now the same for CC[C@H](OC)c1nc(N2CCOCC2)cc(-n2ccc(-c3cccc(C)c3)n2)n1 (single isomer, unassigned)
0.5 to 5 µM

Now the same for "COC(=O)c1ccn(-c2cc(N3CCOCC3)nc(OCCc3cnn(C)c3)n2)n1"
> 5 µM

Now the same for "C/C=C/COc1nc(N2CCOCC2)cc(-n2ccc(-c3cccc(C)c3)n2)n1"
< 0.02 µM

---

molecular target: PIKFYVE (Homo sapiens); assay: PIKFYVE assay (luciferase ADP-Glo kinase assay, Promega); type: biochemical; conditions: Table 3
property: IC50

Recorded IC50 for Cc1cccc(-c2ccn(-c3cc(N4CCOCC4)nc(OC(CN(C)C)c4ccccc4)n3)n2)c1 (stereo not shown) , please?
< 3 nM

Now the same for CO[C@@H](CO)c1nc(N2CCOCC2)cc(-n2ccc(-c3cc(C)ccc3C)n2)n1 (single isomer, unassigned)
10 to 100 nM

Now the same for "CCc1cc(-c2ccccc2)nn1-c1cc(N2CCOCC2)nc(OCCc2cnn(C)c2)n1"
< 3 nM

Now the same for "Cn1cc(CCOc2nc(N3CCOCC3)cc(-n3ccc(-c4cccc(CO)c4)n3)n2)cn1"
< 3 nM

Now the same for "Cn1cc(CCOc2nc(N3CCOCC3)cc(-n3ccc(-c4c[nH]c5ccccc45)n3)n2)cn1"
10 to 100 nM

Now the same for "Cn1cc(CCOc2nc(N3CCOCC3)cc(-n3ccc(-c4ccncc4)n3)n2)cn1"
10 to 100 nM

Now the same for "Cn1cc(CCOc2nc(N3CCOCC3)cc(-n3ccc(C(=O)N4CCCCC4)n3)n2)cn1"
100 to 5000 nM

---

Can you tell me IC50 for the items I'm about to list?
target: PIKFYVE (Homo sapiens); test: PIKFYVE assay (luciferase ADP-Glo kinase assay, Promega); format: biochemical; conditions: Table 3

Recorded IC50 for CO[C@@H](CO)c1nc(N2CCO[C@@H](C)C2)cc(-n2ccc(-c3cccc(C)c3)n2)n1 (single isomer, unassigned) , please?
100 to 5000 nM

Now the same for "Cn1cc(CCOc2nc(N3CCOCC3)cc(-n3ccc(C(=O)O)n3)n2)cn1"
100 to 5000 nM

Now the same for "Cn1cc(CCOc2nc(N3CCOCC3)cc(-n3ccc(C4CC4)n3)n2)cn1"
10 to 100 nM

Now the same for "Cc1cccc(-c2ccn(-c3cc(N4CCOCC4)nc(OCCn4cnc(CO)c4)n3)n2)c1"
< 3 nM

Now the same for COCC(O)c1nc(N2CCOCC2)cc(-n2ccc(-c3cccc(C)c3)n2)n1 (stereo not shown)
3 to 10 nM

Now the same for "CO[C@H](CO)c1nc(N2CCOCC2)cc(-n2ccc(-c3cccc4[nH]ccc34)n2)n1"
10 to 100 nM

Now the same for "Cn1cc(CCOc2nc(N3CCOCC3)cc(-n3ccc(-c4ccccc4)n3)n2)cn1"
< 3 nM

Now the same for "Cn1cc(CCOc2nc(Oc3cc(-c4ccccc4)n(C)n3)cc(N3CCOCC3)n2)cn1"
100 to 5000 nM

Now the same for "Cc1cccc(-c2ccn(-c3nc(OCCc4cnn(C)c4)cc(N4CCOCC4)n3)n2)c1"
3 to 10 nM

Now the same for "Cc1cccc(-c2ccn(-c3cc(N4CCOCC4)nc(OCCOc4ccccc4)n3)n2)c1"
10 to 100 nM

Now the same for "Cc1cccc(-c2ccn(-c3cc(N4CCOCC4)nc(OCCCc4ccco4)n3)n2)c1"
10 to 100 nM

Now the same for "Cc1cccc(-c2ccn(-c3cc(N4CCOCC4)nc(OCCc4cnn(C)c4)n3)n2)n1"
3 to 10 nM

Now the same for COC[C@@H](O)c1nc(N2CCOCC2)cc(-n2ccc(-c3cccc(C)c3)n2)n1 (single isomer, unassigned)
3 to 10 nM

Now the same for "Cn1cc(CCOc2nc(Oc3cc(-c4ccccc4)[nH]n3)cc(N3CCOCC3)n2)cn1"
10 to 100 nM

Now the same for "Cn1cc(CCOc2nc(N3CCOCC3)cc(-n3nc(-c4ccccc4)cc3C3CC3)n2)cn1"
< 3 nM

Now the same for "Cc1cccc(Oc2ccn(-c3cc(N4CCOCC4)nc(OCCc4cnn(C)c4)n3)n2)c1"
< 3 nM

---

target: PIKFYVE (Homo sapiens); experiment: Cell-based Pikfyve inhibition activity assay (EEA1 staining, mean vesicle size in BJ fibroblast cells); settings: Table 4, 4 hours treatment, 3 μM Apilimod = 100% inhibition
pEC50: −log10 of the molar value.
property: pEC50

// fetch PIKFYVE (Homo sapiens) pEC50 for "Cc1ccc(C)c(-c2ccn(-c3cc(N4CCOCC4)nc(OCCc4cnn(C)c4)n3)n2)c1"
6.30 to 7.00

Now the same for "Cc1cccc(-c2cc(CO)n(-c3cc(N4CCOCC4)nc(OCCc4cnn(C)c4)n3)n2)c1"
> 7.70

Now the same for "Cc1cccc(-c2ccn(-c3cc(N4CCOCC4)nc(OCCN)n3)n2)c1"
6.30 to 7.00

Now the same for "Cc1cccc(-c2ccn(-c3cc(N4CCOCC4)nc(NC(=O)CCc4cnn(C)c4)n3)n2)c1"
7.00 to 7.70

Now the same for "Cc1cccc(-c2ccn(-c3cc(N4CCOCC4)nc(OCCN(C)c4ccccc4)n3)n2)c1"
6.30 to 7.00

Now the same for "Cc1cccc(-c2ccn(-c3cc(N4CCOCC4)nc(OCCn4cnc(CO)c4)n3)n2)c1"
6.30 to 7.00

Now the same for "CO[C@H](CO)c1nc(N2CCOCC2)cc(-n2ccc(-c3cccc4[nH]ccc34)n2)n1"
5.30 to 6.30

Now the same for CC[C@@H](OC)c1nc(N2CCOCC2)cc(-n2ccc(-c3cccc(C)c3)n2)n1 (single isomer, unassigned)
5.30 to 6.30

Now the same for N#CCC(O)c1nc(N2CCOCC2)cc(-n2ccc(-c3ccccc3)n2)n1 (stereo not shown)
5.30 to 6.30

Now the same for "Cc1cccc(-c2ccn(-c3cc(N4CCOCC4)nc(OCCc4sc(C)nc4C)n3)n2)c1"
> 7.70

Now the same for "Cc1cccc(-c2cc(CN(C)C)n(-c3cc(N4CCOCC4)c4[nH]ccc4n3)n2)c1"
5.30 to 6.30

Now the same for "C#CCCCOc1nc(N2CCOCC2)cc(-n2ccc(-c3cccc(C)c3)n2)n1"
7.00 to 7.70

Now the same for Cc1cccc(-c2ccn(-c3cc(N4CCOCC4)nc(OCC(c4ccccc4)N(C)C)n3)n2)c1 (stereo not shown)
< 5.30

Now the same for "COc1ccc(CCOc2nc(N3CCOCC3)cc(-n3ccc(-c4cccc(C)c4)n3)n2)cc1OC"
> 7.70

Now the same for "Cc1cccc(-c2ccn(-c3cc(N4CCOCC4)nc(C)n3)n2)c1"
6.30 to 7.00

Now the same for Cc1cccc(-c2ccn(-c3cc(N4CCOCC4)nc([C@@H]4CCCO4)n3)n2)c1 (single isomer, unassigned)
< 5.30

---

target: UniProt Q9Y2I7; assay: Cell-based Pikfyve inhibition activity assay (EEA1 staining, mean vesicle size in BJ fibroblast cells); conditions: Table 4, 4 hours treatment, 3 μM Apilimod = 100% inhibition
pEC50: −log10 of the molar value.
property: pEC50

Recorded pEC50 for CO[C@@H](CO)c1nc(N2CCOCC2)cc(-n2ccc(-c3cccc4[nH]ccc34)n2)n1 [Compound 269] , please?
5.30 to 6.30

Now the same for Cc1cccc(-c2ccn(-c3cc(N4CCOCC4)nc(CCc4ncccn4)n3)n2)c1 [Compound 43]
7.00 to 7.70

Now the same for CC(=O)Nc1nc(N2CCOCC2)cc(-n2ccc(-c3cccc(C)c3)n2)n1 [Compound 66]
6.30 to 7.00

Now the same for Cc1cccc(-c2ccn(-c3cc(N4CCOCC4)nc(N(C)C)n3)n2)c1 [Compound 107]
5.30 to 6.30

Now the same for Cc1cccc(-c2ccn(-c3cc(N4CCOCC4)nc(N4CCCC4=O)n3)n2)c1 [Compound 61]
6.30 to 7.00

Now the same for COC(CC#N)c1nc(N2CCOCC2)cc(-n2ccc(-c3cccc(C)c3)n2)n1 (centres unmarked) [Compound 72]
6.30 to 7.00

Now the same for CO[C@H](CO)c1nc(N2CCOCC2)cc(-n2nc(-c3csc4ccccc34)cc2C)n1 [Compound 278]
5.30 to 6.30

Now the same for COCc1cccc(-c2ccn(-c3cc(N4CCOCC4)nc(OCCc4cnn(C)c4)n3)n2)c1 [Compound 200]
> 7.70

Reference source: patent US20230135152A1
